Reference source: patent US8350048B2

Reported recovery at 15 min, 5 μM values for a set of compounds
# assay-name: Metabolic stability of test compounds (HLM15')
# Type: in vitro ADME, human
# reported-conditions: pH 7.4; human liver microsomes 1 mg/ml, 5 μM test compound, 15 min; read-out: Metabolic stability (HLM, % recovery after 15')

molecule	recovery at 15 min, 5 μM (%)
Cc1nc2ccc(C(=O)N(CC(C)C)C[C@@H](O)[C@H](Cc3ccccc3)NC(=O)OCc3cncs3)cc2o1	60
O=C(N[C@@H](Cc1ccccc1)[C@H](O)CN(CC1CCCCC1)C(=O)c1ccc2nc(N3CCCC3)oc2c1)OCc1cncs1	59
CC(C)CN(C[C@@H](O)[C@H](Cc1ccccc1)NC(=O)OCc1cncs1)C(=O)c1ccc2nc(NCCN(C)C)oc2c1	59

* * *

# measurement-target: CYP2D6 (Homo sapiens)
# Sequence (P10635 whole entry): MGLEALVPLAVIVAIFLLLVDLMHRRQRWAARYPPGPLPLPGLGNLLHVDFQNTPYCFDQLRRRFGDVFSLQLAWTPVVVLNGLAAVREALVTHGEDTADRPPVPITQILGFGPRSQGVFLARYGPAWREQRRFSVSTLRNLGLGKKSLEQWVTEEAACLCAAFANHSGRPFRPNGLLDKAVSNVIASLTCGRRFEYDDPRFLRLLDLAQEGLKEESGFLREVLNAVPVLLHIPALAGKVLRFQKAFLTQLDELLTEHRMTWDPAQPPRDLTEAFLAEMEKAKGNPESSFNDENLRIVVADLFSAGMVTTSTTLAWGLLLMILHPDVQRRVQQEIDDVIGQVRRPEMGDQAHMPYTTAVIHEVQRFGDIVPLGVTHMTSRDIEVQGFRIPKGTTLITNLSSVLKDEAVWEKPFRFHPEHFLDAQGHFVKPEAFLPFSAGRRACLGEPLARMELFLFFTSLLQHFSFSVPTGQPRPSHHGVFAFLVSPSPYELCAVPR
# assay-name: in vitro
# reported-conditions: pH 7.4
Please use y whenever inhibition at 45 min, 10 μM is not below 60%, and n whenever it is.

compound	class-assignment
CC(C)CN(C[C@@H](O)[C@H](Cc1ccccc1)NC(=O)OCc1cncs1)C(=O)c1ccc2nc(NCCN(C)C)oc2c1 [Compound C16]	y
CC(C)CN(C[C@@H](O)[C@H](Cc1ccccc1)NC(=O)OCc1cncs1)C(=O)c1ccc2nc(C(C)C)oc2c1 [Compound C45]	n
O=C(N[C@@H](Cc1ccccc1)[C@H](O)CN(CC1CCCCC1)C(=O)c1ccc2nc(N3CCCC3)oc2c1)OCc1cncs1 [Compound C31]	y
CC(C)CN(C[C@@H](O)[C@H](Cc1ccccc1)NC(=O)OCc1cncs1)C(=O)c1ccc2nc(N)sc2c1 [Compound C6]	y
CC(C)CN(C[C@H](O)[C@H](Cc1ccccc1)NC(=O)OCc1cncs1)C(=O)c1ccc2nc(N3CCCC3)oc2c1 [Compound C51]	y

* * *

Catalogue of molecules with associated CC50 at 3 days
# assay-name: Toxicity, mock-infected MT4 CMV-EGFP cells
# Type: cell-based, human
# reported-conditions: human, mock-infected MT4 CMV-EGFP cells; read-out: Toxicity MT4 (pCC50) (converted)

molecule	CC50 at 3 days
CC(C)CN(C[C@@H](O)[C@H](Cc1ccccc1)NC(=O)OCc1cncs1)C(=O)c1ccc2nc(N)sc2c1 [Compound C6]	> 93.3 µM
CC(C)CN(C[C@@H](O)[C@H](Cc1ccccc1)NC(=O)OCc1cncs1)C(=O)c1ccc2nc(N3CCN(C)CC3)oc2c1 [Compound C15]	> 100 µM
CC(C)CN(C[C@@H](O)[C@H](Cc1ccccc1)NC(=O)OCc1cncs1)C(=O)c1ccc2nc(NCCN(C)C)oc2c1 [Compound C16]	> 100 µM
CC(C)CN(C[C@@H](O)[C@H](Cc1ccccc1)NC(=O)OCc1cncs1)C(=O)c1ccc2ncoc2c1 [Compound C38]	> 100 µM
Cc1nc2ccc(C(=O)N(CC(C)C)C[C@@H](O)[C@H](Cc3ccccc3)NC(=O)OCc3cncs3)cc2o1 [Compound C40]	> 100 µM

* * *

Listed below: inhibition at 10 min, 10 μM values for each entry.
# measurement-target: CYP3A4 (Homo sapiens)
# Sequence (P08684 whole entry): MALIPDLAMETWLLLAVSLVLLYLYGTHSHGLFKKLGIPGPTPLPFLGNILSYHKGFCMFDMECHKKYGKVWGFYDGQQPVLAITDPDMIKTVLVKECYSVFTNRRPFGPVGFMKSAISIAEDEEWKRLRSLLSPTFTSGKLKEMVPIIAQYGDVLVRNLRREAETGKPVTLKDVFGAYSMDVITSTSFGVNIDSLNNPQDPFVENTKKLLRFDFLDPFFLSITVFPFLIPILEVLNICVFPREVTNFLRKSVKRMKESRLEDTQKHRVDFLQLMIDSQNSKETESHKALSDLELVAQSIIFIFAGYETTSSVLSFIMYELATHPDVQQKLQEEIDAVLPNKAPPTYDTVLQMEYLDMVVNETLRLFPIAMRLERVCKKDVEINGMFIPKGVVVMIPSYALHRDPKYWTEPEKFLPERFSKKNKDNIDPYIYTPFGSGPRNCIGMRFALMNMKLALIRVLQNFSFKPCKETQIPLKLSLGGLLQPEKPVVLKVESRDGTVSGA
# assay-name: in vitro
# reported-conditions: human, pH 7.4
# Excerpt: Assay 4: CYP450 Inhibition
property-measured: inhibition at 10 min, 10 μM (%)

molecule	property-measured	unit-annotation	readout-number
CC(C)CN(C[C@@H](O)[C@H](Cc1ccccc1)NC(=O)OCc1cncs1)C(=O)c1ccc2ncn(C)c2c1 [Compound C8]	inhibition at 10 min, 10 μM	%	93
Cc1nc2ccc(C(=O)N(CC(C)C)C[C@@H](O)[C@H](Cc3ccccc3)NC(=O)OCc3cncs3)cc2o1 [Compound C40]	inhibition at 10 min, 10 μM	%	91
CCc1nc2ccc(C(=O)N(CC(C)C)C[C@@H](O)[C@H](Cc3ccccc3)NC(=O)OCc3cncs3)cc2o1 [Compound C39]	inhibition at 10 min, 10 μM	%	92

* * *

# measurement-target: CYP2C19 (Homo sapiens, UniProt P33261)
# Sequence (P33261 whole entry): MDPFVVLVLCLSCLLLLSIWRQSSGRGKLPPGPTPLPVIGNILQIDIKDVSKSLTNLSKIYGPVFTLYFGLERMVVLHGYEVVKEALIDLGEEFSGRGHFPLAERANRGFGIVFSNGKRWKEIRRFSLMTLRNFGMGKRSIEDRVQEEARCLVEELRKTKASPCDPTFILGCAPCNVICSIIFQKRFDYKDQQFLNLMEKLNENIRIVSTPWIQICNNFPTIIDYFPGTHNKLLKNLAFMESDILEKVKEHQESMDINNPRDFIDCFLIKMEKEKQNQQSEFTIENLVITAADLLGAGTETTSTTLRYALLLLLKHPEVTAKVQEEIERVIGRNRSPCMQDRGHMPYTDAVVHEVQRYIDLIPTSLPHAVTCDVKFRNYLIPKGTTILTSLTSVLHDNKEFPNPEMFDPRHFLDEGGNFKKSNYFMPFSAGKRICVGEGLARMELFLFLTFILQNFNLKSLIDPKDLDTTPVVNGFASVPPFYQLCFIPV
# assay-name: CYP450 inhibition CDNA-CYP2C19-CEC
# reported-conditions: 10 μM test compound, substrate CEC 25 μM, 30 min
property-measured: Cyp450 inhibition: CDNA-CYP2C19-CEC (% inhibition) (%)

compound	measurement-target	readout-number
CC(C)CN(C[C@@H](O)[C@H](Cc1ccccc1)NC(=O)OCc1cncs1)C(=O)c1ccc2nc(NC3CCN(C)CC3)oc2c1 [Compound C25]	CYP2C19 (Homo sapiens, UniProt P33261)	7
CC(C)CN(C[C@@H](O)[C@H](Cc1ccccc1)NC(=O)OCc1cncs1)C(=O)c1ccc2nc(N(C)C)oc2c1 [Compound C4]	CYP2C19 (Homo sapiens, UniProt P33261)	82
CN(C[C@@H](O)[C@H](Cc1ccccc1)NC(=O)OCc1cncs1)C(=O)c1ccc2nc(N3CCCC3)oc2c1 [Compound C21]	CYP2C19 (Homo sapiens, UniProt P33261)	90
CC(C)(O)CN(C[C@@H](O)[C@H](Cc1ccccc1)NC(=O)OCc1cncs1)C(=O)c1ccc2nc(N3CCCC3)oc2c1 [Compound C28]	CYP2C19 (Homo sapiens, UniProt P33261)	83
CC(C)CN(C[C@@H](O)[C@H](Cc1ccccc1)NC(=O)OCc1cncs1)C(=O)c1ccc2nc(N3CCCC3)oc2c1 [Compound C2]	CYP2C19 (Homo sapiens, UniProt P33261)	92

* * *

Recorded inhibition at 30 min, 10 μM values for a group of compounds are listed next.
# measurement-target: CYP2C9 (Homo sapiens, UniProt P11712)
# Sequence (P11712 whole entry): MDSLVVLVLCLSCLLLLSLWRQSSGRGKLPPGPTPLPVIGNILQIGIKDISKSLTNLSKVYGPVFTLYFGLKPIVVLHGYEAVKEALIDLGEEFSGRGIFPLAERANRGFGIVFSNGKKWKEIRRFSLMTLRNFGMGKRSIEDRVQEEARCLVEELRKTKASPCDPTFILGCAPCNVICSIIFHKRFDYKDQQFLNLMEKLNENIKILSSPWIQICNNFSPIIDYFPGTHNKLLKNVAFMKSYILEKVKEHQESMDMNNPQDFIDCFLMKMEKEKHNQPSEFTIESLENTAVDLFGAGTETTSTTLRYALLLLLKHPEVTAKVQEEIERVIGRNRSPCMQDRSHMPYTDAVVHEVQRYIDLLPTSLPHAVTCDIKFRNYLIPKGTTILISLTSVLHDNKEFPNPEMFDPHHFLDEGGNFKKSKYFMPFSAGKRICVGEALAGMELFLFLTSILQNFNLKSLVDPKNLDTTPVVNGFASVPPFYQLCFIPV
# assay-name: in vitro
# reported-conditions: human, pH 7.4
# Text: Assay 4: CYP450 Inhibition
property-measured: inhibition at 30 min, 10 μM (%)

molecule	property-measured	readout-number
CCN(C)c1nc2ccc(C(=O)N(CC(C)C)C[C@@H](O)[C@H](Cc3ccc(F)cc3)NC(=O)OCc3cncs3)cc2o1	inhibition at 30 min, 10 μM	96
CC(C)CN(C[C@@H](O)[C@H](Cc1ccccc1)NC(=O)OCc1cncs1)C(=O)c1ccc2nc(N3CCN(C)CC3)oc2c1	inhibition at 30 min, 10 μM	96
CC(C)CN(C[C@@H](O)[C@H](Cc1ccccc1)NC(=O)OCc1cncs1)C(=O)c1ccc2nc(N3CCCCC3)oc2c1	inhibition at 30 min, 10 μM	100
CCN(C)c1nc2ccc(C(=O)N(CC(C)C)C[C@@H](O)[C@H](Cc3ccccc3)NC(=O)OCc3ccncc3)cc2o1	inhibition at 30 min, 10 μM	93
CC(C)CN(C[C@@H](O)[C@H](Cc1ccccc1)NC(=O)OCc1cncs1)C(=O)c1ccc2nc(N)sc2c1	inhibition at 30 min, 10 μM	99
CC(C)CN(C[C@@H](O)[C@H](Cc1ccccc1)NC(=O)OCc1cncs1)C(=O)c1ccc2ncn(C)c2c1	inhibition at 30 min, 10 μM	92
